# System: COX-2 (Homo sapiens, UniProt P35354)
# Sequence (P35354 18-604): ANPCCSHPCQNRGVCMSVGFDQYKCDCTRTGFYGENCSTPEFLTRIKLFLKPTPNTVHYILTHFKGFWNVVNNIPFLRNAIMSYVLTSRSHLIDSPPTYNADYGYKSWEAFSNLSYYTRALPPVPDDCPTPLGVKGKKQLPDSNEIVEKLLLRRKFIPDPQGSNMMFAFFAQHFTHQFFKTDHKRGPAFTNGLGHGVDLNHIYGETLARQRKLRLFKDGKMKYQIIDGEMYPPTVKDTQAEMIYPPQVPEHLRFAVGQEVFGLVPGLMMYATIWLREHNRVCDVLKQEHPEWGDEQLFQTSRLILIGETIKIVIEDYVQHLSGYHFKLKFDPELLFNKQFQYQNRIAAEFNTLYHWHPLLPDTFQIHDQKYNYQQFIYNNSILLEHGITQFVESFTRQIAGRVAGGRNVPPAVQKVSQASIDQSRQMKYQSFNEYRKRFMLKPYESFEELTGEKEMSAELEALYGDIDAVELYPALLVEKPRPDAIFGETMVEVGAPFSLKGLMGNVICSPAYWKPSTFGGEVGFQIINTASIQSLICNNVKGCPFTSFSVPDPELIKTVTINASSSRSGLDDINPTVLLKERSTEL
pIC50: −log10 of the molar value.
Measured pIC50, listed per entry for reference.
Reported Endpoint: pIC50

O=c1cc(-c2ccc(O)c(O)c2)oc2cc(O)cc(O)c12 ... 4.97
O=c1c(O)c(-c2ccc(O)c(O)c2)oc2cc(O)cc(O)c12 ... 5.40
